Each recorded value in this set is attributed to ChEMBL document CHEMBL1201862.

tested on: NCI-H23; assay: NCI tumour cell line growth inhibition, 48 h
Activity calls are given as the source filed them. No stated cut-off is given here; in the data, active = GI50 up to about 1.1 µM and inactive = higher.
PARAMETER MEASURED: GI50

// returns GI50 for O=C(c1ccccc1)N1N=C(C(F)(F)F)CC1(O)C(F)(F)F (stereo not given) with NCI-H23; value = > 100 µM (inactive)

CC1(C)C(=O)C2(C#N)CCC1C2 (stereo not given) on NCI-H23 gives GI50 = > 100 µM (inactive)

The value of GI50 recorded for "O=C1N/C(=N/N=C/c2ccccc2)N/C1=C\c1c[nH]c2ccccc12" when tested on NCI-H23 reads 95.1 µM (inactive)

NCI-H23 assay, compound "[O-][S+]1Nc2c(Cl)cc(Cl)c3c(Cl)cc(Cl)c(c23)N1" , recorded GI50 = 29.1 µM (inactive)

Sample COCC12CCC(OC)C34C5CC6(O)C(OC)CC(OC(C)=O)(C5C6OC(=O)c5ccccc5)C(C(OC)C13)C4N(C)C2 (stereo not given) , system: NCI-H23. Its GI50 is > 100 µM (inactive)
